B1: SPATS1 (parent)
chain: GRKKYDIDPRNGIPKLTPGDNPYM

Variants of: B1
Test Protocol: protein stability index of a GFP-peptide fusion (GPS, HEK-293T) (PSI 1-6); higher = more stable;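 note: lentivirally expressed fusions sorted by FACS into six bins by GFP to DsRed ratio, PSI derived from sequencing read proportions per bin multiplied by bin number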
Stated Conditions: c terminus: a fixed tail appended
Measured Parameter: protein stability index

[[record]]
mutations = "I7M"
numeric_result = 2.98

[[record]]
mutations = "M24C"
numeric_result = 3.73

[[record]]
mutations = "P14V"
numeric_result = 3.36

[[record]]
mutations = "M24W"
numeric_result = 3.53

[[record]]
mutations = "L16H"
numeric_result = 3.75

[[record]]
mutations = "Y5S"
numeric_result = 4.36

[[record]]
mutations = "P14Q"
numeric_result = 3.42

[[record]]
mutations = "K4W"
numeric_result = 3.03

[[record]]
mutations = "Y5H"
numeric_result = 3.88

[[record]]
mutations = "R10T"
numeric_result = 3.81

[[record]]
mutations = "P18M"
numeric_result = 3.18


Measured values drawn from the supplement of paper PMC10567573 for this set.
